system: HCT-15 colon; experiment: NCI-60 one-dose screen, 48 h (100 = growth as untreated, 0 = no growth, -100 = all killed); settings: 10 µM unless noted
This is part of a sample that, as a whole, favours compounds with a hit. Of some 83,000 tested, about 20% had one in any assay.
Exercise: state measured growth for each of the molecules provided.
Numbers only, in %.

Below: 4 molecules and their reported growth.
- molecule: "CCCC1C(C(=O)OCC)=C(N)Oc2cc(O)ccc21 (stereo not given)"
  growth / %: 96.7
- molecule: "CC(C)CCSc1nc(NNC(N)=O)c(C#N)c(-c2ccccc2)n1"
  growth / %: 98.7
- molecule: "C=C1C(=O)O[C@H]2[C@H]1CC/C(COC(=O)/C=C/c1c[nH]c3ccccc13)=C\\CC[C@@]1(C)O[C@@H]21"
  growth / %: -64.6
- molecule: "Cc1ccc(/C=C/C(=O)c2ccc(N)cc2)c(C)c1"
  growth / %: 18.6

Please state, for each entry, its recorded growth.
1. COc1cc(OC)c(/C=C/C(=O)c2ccc(Nc3ncnc4ccccc34)cc2)c(OC)c1
2. CCCCCCCCN1C(=O)/C(=c2\sc3n(c2=O)C2C(NN=3)N(CC)C(=O)N2CC)c2ccccc21 (stereo not given)
3. CCCCN(CCCC)CCc1c(C)cc(C)c(CCN(CCCC)CCCC)c1O

Out:
[9.75, 93.2, 36.7]

Please look at the items below and tell me growth for each one, in order.
1. COc1ccc(C2CC(c3cccc(Nc4ccncc4)c3)=NN2c2ccccc2)cc1 (stereo not given)
2. C[C@]12CCc3nc(Nc4cccc(O)c4)sc3C1=CC[C@@H]1[C@@H]2CC[C@]2(C)/C(=N\NC(N)=S)CC[C@@H]12
3. O=C1Nc2ccccc2/C1=N/c1nc(-c2ccc(Cl)cc2)cs1

Out:
-22.9
-29
71.2

====

System: M14 melanoma
Assay: NCI-60 one-dose screen, 48 h
Conditions: 10 µM unless noted
Experimental: Growth inhibition of the M14 human tumor cell line is measured as a screen for anti-cancer activity. Cells are grown in 96 well plates and exposed to the test compound for 48 hours. Compounds are tested at a single concentration, which is 10^-5 M for most compounds. The reported endpoint is percent growth (GI% or GIPRCNT), where numbers from 0 - 100% represent growth inhibition, and numbers from -100% - 0 represent cell death. For example, a value of 40 represents 60% growth inhibition. […]
About 83,000 compounds went through this panel and 20% of them were active in at least one assay; those are over-represented in the sample as a whole. Active and inactive are the calls of the source. How the source made its calls: active means growth percent below 10; inactive means the rest.
Your response should consist of one outcome taken from TRUE for active, FALSE for inactive

Illustrative cases are given below, each with its answer.
- molecule: "Cc1nccc2c3ccc(OCc4cn(-c5ccc(Cl)cc5)nn4)cc3n(CCCc3ccccc3)c12"
  assigned.category: "TRUE"
- molecule: "COc1ccc(NS(=O)(=O)c2ccc(C)cc2)c([N+](=O)[O-])c1"
  assigned.category: "FALSE"

Let's switch to this molecule now.
In: GET /call?item= O=C(Nc1ccc(Nc2ncccn2)cc1)NC1C=c2ccccc2=CC1 (stereo not drawn) returns the recorded outcome of this test.
Out: FALSE

====

tested on: SW-620 colon; assay: NCI-60 one-dose screen, 48 h; settings: 10 µM unless noted
Compounds without any hit were thinned out: in the full panel of roughly 83,000, 20% have a hit. Activity calls are given as the source filed them. How the source made its calls: active means growth percent below 10; inactive means the rest.
Hi there, use one of these labels in your reply, thanks! 1 for active, -1 for inactive

Answered cases to consult:
- compound: "COc1ccc(C2CC(c3cccc(Nc4ccncc4)c3)=NN2c2ccccc2)cc1 (centres undefined)"
  assigned.category: 1
- compound: "O=C(Nc1ccc2cc3ccc(NC(=O)N4CCCCCC4)cc3nc2c1)N1CCCCCC1"
  assigned.category: 1
- compound: "C(=C\\c1n(Cc2ccc3ccccc3c2)c(-c2ccccc2)c(-c2ccccc2)[n+]1Cc1ccc2ccccc2c1)/c1ccccc1"
  assigned.category: 1

In: Hey, what did the test say about "Nc1ncc(C#Cc2cncc(NC(=O)c3cccc(C(F)(F)F)c3)c2)c2cccnc12" ?
Out: -1

In: Could you please tell me the result logged for "COc1cc2nc(-c3ccc(C(F)(F)F)cc3)cc(OCCN3CCC(O)CC3)c2cc1OC" in this assay?
Out: -1

In: Per the assay record, what outcome was assigned to "COc1cc(COC(=O)CCCCC[P+](c2ccccc2)(c2ccccc2)c2ccccc2)c(OC)c2c1OCO2" ?
Out: -1

In: For "COc1ccc(-c2cnnc3c(-c4cccc(C(F)(F)F)c4)cnn23)cc1" , what call appears in the results of this test?
Out: -1

====

Please respond with reported growth for every item in the list.
test system: HOP-62 NSCLC; test: NCI-60 one-dose screen, 48 h (100 = growth as untreated, 0 = no growth, -100 = all killed); conditions: 10 µM unless noted
Compounds without any hit were thinned out: in the full panel of roughly 83,000, 20% have a hit.
One number for each entry, in %.

Some solved entries appear below for comparison.
- compound: "O=C(NCCN1CCOCC1)OCc1nc2nc(Cl)nc(N3CCOCC3)c2[nH]1"
  assayed.system: "HOP-62 NSCLC"
  units.text: "%"
  growth: 32.5
- compound: "NC(=O)c1cccc(-c2ccccc2N2CCCCC2)c1"
  assayed.system: "HOP-62 NSCLC"
  units.text: "%"
  growth: 99.5
- compound: "Clc1ccc(C2CC(c3cccc(Nc4ccncc4)c3)=NN2c2cc(Cl)cc(Cl)c2)cc1 (stereo unspecified)"
  assayed.system: "HOP-62 NSCLC"
  units.text: "%"
  growth: 68.5
- compound: "Clc1nc(Nc2ccccc2)nc(Nc2ccccc2)n1"
  assayed.system: "HOP-62 NSCLC"
  units.text: "%"
  growth: 81.5
- compound: "Clc1ccc(C2CC(c3cccc(Nc4ccncc4)c3)=NN2c2ccc(Cl)cc2)cc1 (stereo unspecified)"
  assayed.system: "HOP-62 NSCLC"
  units.text: "%"
  growth: -44.4

// moving on: another record for growth
In: What value of growth has been recorded for this entry: "O=C(Nc1ccc2cc3ccc(NC(=O)NC4CCCCC4)cc3nc2c1)NC1CCCCC1"
Out: 89.2

====

system: OVCAR-8 ovarian; assay: NCI-60 one-dose screen, 48 h (100 = growth as untreated, 0 = no growth, -100 = all killed); details: 10 µM unless noted
Compounds without any hit were thinned out: in the full panel of roughly 83,000, 20% have a hit.
Classify by measured growth: true if it is equal to or exceeds 60%, false if it is smaller.

For orientation, consider the following solved cases.
- compound: "COc1cccc2cc(-c3cc4ccccc4[nH]3)/c(=N/C(=S)Nc3ccc(C)cc3)oc12"
  assigned.category: "false"
- compound: "O=C(CN1CCOCC1)Nc1ccc2ncnc(Nc3ccc(OCc4cccc(F)c4)c(Cl)c3)c2c1"
  assigned.category: "true"
- compound: "COc1cc(C2CC(c3cccc(Nc4ccncc4)c3)=NN2C(C)=O)cc(OC)c1OC (stereo not drawn)"
  assigned.category: "true"
- compound: "Cc1ccc(-c2c(Br)c(OC(=O)CO[C@@H]3C[C@H](C)CC[C@H]3C(C)C)c(-c3ccc(C)cc3C)c(Br)c2OC(=O)CO[C@H]2C[C@@H](C)CC[C@@H]2C(C)C)c(C)c1"
  assigned.category: "true"
- compound: "COc1cccc(CNCCN2C(=O)c3ccc4c5c(ccc(c35)C2=O)C(=O)N(CCNCc2cccc(OC)c2)C4=O)c1"
  assigned.category: "true"
- compound: "N#Cc1cc(-c2nc3ccccc3s2)c(=O)n(NS(=O)(=O)c2ccc(Cl)cc2)c1N"
  assigned.category: "true"

In: Answer whether growth of "COc1ccc(C(=O)/C=C/c2c(OC)cc(OC)cc2OC)c(OC)c1" is greater than or equal to 60%.
Out: false

In: Check this compound for growth at or above 60%: "CN1CCN(c2cc(F)c(NC3=C(Cl)C(=O)c4ncccc4C3=O)c(F)c2)CC1"
Out: false

In: Decide: growth of "CCN(CC)S(=O)(=O)c1cccc([N+](=O)[O-])c1" >= 60%?
Out: true

In: Tell me whether growth is at least 60% here: "Cc1ccc(C(c2c(O)c3cc(Br)ccc3[nH]c2=O)c2c(O)c3cc(Br)ccc3[nH]c2=O)cc1"
Out: true

In: Kindly determine if growth recorded for "O=C(CN1CCOCC1)Nc1ccc2ncnc(Nc3ccc(Oc4cccc(C(F)(F)F)c4)c(Cl)c3)c2c1" is above or exactly 60%.
Out: false

In: I'd appreciate it if you could say whether "CS(=O)(=O)c1ccc(-c2cc(-c3nnc(SCC(=O)Nc4ccc(C(=O)/C=C/c5ccc(Cl)cc5)cc4)n3-c3ccccc3)c3ccccc3n2)cc1" has growth at least equal to 60%.
Out: true

In: Check this compound for growth at or above 60%: "C=C1C(=O)O[C@H]2[C@H]1CC/C(CNC(=O)/C=C/c1ccccc1F)=C\CC[C@@]1(C)O[C@@H]21"
Out: false

In: growth >= 60% for COc1cc(NCC(C)(O)CN(CC(C)C)CC(C)C)c2nc(C)ccc2c1 (stereo not drawn) ?
Out: true

In: Check the entry "CCCC/C(=N\N=C(N)N)c1ccc(F)cc1" : does growth equal or exceed 60%?
Out: false

In: Textbook exercise: given the entry CCOC(=O)C1CC(=O)c2cc(OC)c(OC)cc2C1 (stereo not drawn) , state whether its growth is greater than or equal to 60%.
Out: true

In: Item "O=C(N/N=C/c1cccnc1)c1ccccc1Nc1cccc(C(F)(F)F)c1" with growth of 60% or above?
Out: true

In: Reported growth at or above 60%? "COc1cccc2c1C(=O)c1c(O)c3c(c(O)c1C2=O)C[C@@](O)(C(=O)CO)C[C@@H]3O[C@H]1C[C@H](N)[C@@H](O)[C@H](C)O1"
Out: false

Attribution: PubChem BioAssay (NCI)
